- Tested on: Artemia salina
- measurement protocol: Toxicity in brine shrimp larva assessed as corrected mortality at 100 ppm after 24 hrs by microscopic analysis relative to control
- Format: functional
metric name: mortality at 100 ppm

Past entries and their recorded results:
What the record says about C=C1[C@@H]([C@@]2(C)C=CC(=O)C(C)(C)[C@@H]2CC(=O)OC)[C@@H](OC(C)=O)[C@H](O)[C@@]2(C)[C@H](c3ccoc3)C[C@H]3O[C@]132 : mortality at 100 ppm is < 50%

The value of mortality at 100 ppm measured for the compound C=C1[C@@H]([C@@]2(C)C=CC(=O)C(C)(C)[C@@H]2CC(=O)OC)[C@@H](OC(C)=O)[C@H](OC(=O)C(C)C)[C@@]2(C)[C@H](C3=CC(O)OC3=O)C[C@H]3O[C@]132 (some centres undefined) turned out to be < 50%

Further cases:
The reported mortality at 100 ppm of the compound C=C1[C@@H]([C@@]2(C)[C@H](OC(C)=O)CC(=O)C(C)(C)[C@@H]2CC(=O)OC)[C@@H](OC(C)=O)[C@H](OC(C)=O)[C@@]2(C)[C@H](c3ccoc3)C[C@H]3O[C@]132 was 54.7%

Record C=C1[C@@H]([C@@]2(C)C=CC(=O)C(C)(C)[C@@H]2CC(=O)OC)[C@@H](OC(C)=O)[C@H](OC(=O)Cc2ccccc2)[C@@]2(C)[C@H](C3=CC(=O)OC3O)C[C@H]3O[C@]132 (some centres undefined) . Reported mortality at 100 ppm: < 50%

----------
- Tested on: Artemia salina
- measurement protocol: Toxicity in brine shrimp larva assessed as corrected mortality at 100 ppm after 24 hrs by microscopic analysis relative to control
- Format: functional
metric name: mortality at 100 ppm (%)
Response body: numeric value in %, unit text excluded.

For orientation, consider the following solved cases.
The reported mortality at 100 ppm of the compound CC(=O)O[C@H]1C[C@@H]2[C@@]3(C)C=CC(=O)C(C)(C)[C@@H]3C[C@@H](O)[C@@]2(C)C2=CC[C@@H](c3ccoc3)[C@@]21C was 85

Record summary for CCC(=O)O[C@@H]1C[C@H](OC(C)=O)[C@@]2(C)[C@H]3[C@@H](OC[C@]13C)[C@@H](O)[C@@]1(C)C3=CC[C@@H](c4ccoc4)[C@]3(C)CC[C@@H]12 : reported mortality at 100 ppm = 75.6

More entries:
# mortality at 100 ppm of CC(=O)O[C@H]1C[C@@H]2[C@@]3(C)CCC(=O)C(C)(C)[C@@H]3C[C@@H](O)[C@@]2(C)C2=CC[C@@H](c3ccoc3)[C@@]21C = 76.4

----------
- Test system: Artemia salina
- measurement protocol: Toxicity in brine shrimp larva assessed as corrected mortality at 10 ppm after 24 hrs by microscopic analysis relative to control
- Assay type: functional
Catalogue of mortality at 10 ppm values
Could you give me the number in %? Just the number is fine.

Record excerpt, results attached:
# mortality at 10 ppm of C=C1[C@@H]([C@@]2(C)[C@H](OC(C)=O)CC(=O)C(C)(C)[C@@H]2CC(=O)OC)[C@@H](OC(C)=O)[C@H](OC(C)=O)[C@@]2(C)[C@H](c3ccoc3)C[C@H]3O[C@]132 = 0

The value of mortality at 10 ppm measured for the molecule CC(=O)O[C@H]1C[C@@H]2[C@@]3(C)C=CC(=O)C(C)(C)[C@@H]3C[C@@H](O)[C@@]2(C)C2=CC[C@@H](c3ccoc3)[C@@]21C turned out to be 20.6

---
Lab note: measured mortality at 10 ppm of C=C1[C@@H]([C@@]2(C)[C@H](OC(C)=O)CC(=O)C(C)(C)[C@@H]2CC(=O)OC)[C@@H](OC(C)=O)[C@H](OC(=O)C(C)C)[C@@]2(C)[C@H](c3ccoc3)C[C@H]3O[C@]132 was 60.8

Record summary for C/C=C(\C)C(=O)O[C@H]1C[C@@H](OC(C)=O)[C@@]2(C(=O)OC)CO[C@H]3[C@@H](O)[C@@](C)([C@]45O[C@@]4(C)[C@@H]4C[C@H]5O[C@@H]5OC=C[C@@]54O)[C@H]4[C@]1(CO[C@]4(O)C(=O)OC)[C@@H]32 : reported mortality at 10 ppm = 12.5

----------
- System: RAW264.7
- measurement protocol: Cytotoxicity against mouse RAW264.7 cells at 50 uM by MTT assay
- Assay type: cell-based
- condition label: raw264.7, 50 µM
metric name: Activity

Lab book: Activity of C=C1[C@@H]([C@@]2(C)C=CC(=O)C(C)(C)[C@@H]2CC(=O)OC)[C@@H](OC(C)=O)[C@H](OC(=O)C(C)C)[C@@]2(C)[C@H](C3=CC(O)OC3=O)C[C@H]3O[C@]132 (stereo partly drawn) noted as Non-toxic

The reported Activity of the molecule C=C1[C@@H]([C@@]2(C)C=CC(=O)C(C)(C)[C@@H]2CC(=O)OC)[C@@H](OC(C)=O)[C@H](OC(=O)C(C)CC)[C@@]2(C)[C@H](c3ccoc3)C[C@H]3O[C@]132 (stereo partly drawn) was Non-toxic

Sure, the documented Activity for C=C1[C@@H]([C@@]2(C)C=CC(=O)C(C)(C)[C@@H]2CC(=O)OC)[C@@H](OC(C)=O)[C@H](OC(=O)C(C)C)[C@@]2(C)[C@H](c3ccoc3)C[C@H]3O[C@]132 is Non-toxic

----------
- System: HL-60
- measurement protocol: Cytotoxicity against human HL60 cells by MTT assay
- Assay type: functional, cell-based
Measured IC50 of individual entries

Example cases with answers are listed next.
Reading of IC50 for C=C1C2=CC[C@H](c3ccoc3)[C@]2(C)[C@@H](OC(C)=O)[C@H](OC(C)=O)[C@@H]1[C@@]1(C)C=CC(=O)C(C)(C)[C@@H]1CC(=O)OC with HL-60: < 10 µM

The compound C=C1[C@@H]([C@@]2(C)[C@H](OC(C)=O)CC(=O)C(C)(C)[C@@H]2CC(=O)OC)[C@@H](OC(C)=O)[C@H](OC(=O)C(C)C)[C@@]2(C)[C@H](c3ccoc3)C[C@H]3O[C@]132 on HL-60: IC50 was < 10 µM

We next turn to a different compound, shown below.
The value of IC50 recorded for C/C=C(\C)C(=O)O[C@H]1C[C@@H](OC(=O)CC)[C@@]2(C(=O)OC)CO[C@H]3[C@H]4O[C@]5(C)[C@H]6C[C@H](OC7OC=C[C@@]76O)[C@]5(O)[C@@]4(C)C4[C@]1(CO[C@]4(O)C(=O)OC)[C@@H]32 (stereo partly drawn) when tested on HL-60 reads < 10 µM

----------
Recorded measurements of pIC50, one per entry
- Tested on: HL-60
- measurement protocol: Cytotoxicity against human HL60 cells by MTT assay
- Format: functional, cell-based
pIC50: −log10 of the molar value.

Here's what some known entries look like.
response.value for C=C1[C@@H]([C@@]2(C)C=CC(=O)C(C)(C)[C@@H]2CC(=O)OC)[C@@H](OC(C)=O)[C@H](OC(C)=O)[C@@]2(C)[C@H](C3=CC(O)OC3=O)C[C@H]3O[C@]132 (stereo partly drawn) (field: pIC50) = > 5.00

Reported pIC50 ( CO[C@@H]1O[C@@H]([C@@H]2OC2(C)C)C[C@H]1[C@@H]1CCC2[C@]3(C)[C@H](O)C[C@H]4C(C)(C)C(=O)C=C[C@]4(C)[C@H]3CC[C@]21C (stereo partly drawn) ) = > 5.00

Could you now consider this next compound?
Documented pIC50 of C=C1[C@@H]([C@@]2(C)C=CC(=O)C(C)(C)[C@@H]2CC(=O)OC)[C@@H](OC(C)=O)[C@H](O)[C@@]2(C)[C@H](c3ccoc3)C[C@H]3O[C@]132 : > 5.00

Every entry's value here was drawn from ChEMBL document CHEMBL2384971.
